- experiment summary: Stat Signaling Pathway (AID 446);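 further: ME-180 cervical cancer cells given 40 pM IL-6 alongside compound; SIE-controlled beta-lactamase reporter measured as 460/530 nm FRET emission ratio; on the % scale 0 is the no-effect control and ±100 the full control effect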
- test conditions: ME-180 SIE beta-lactamase reporter, IL-6 stimulated, 5 h; at 17.2 µM (top of the series) unless noted
Records with an inconclusive call do not appear. Activity calls are given as the source filed them. The call rests on the fitted dose curve; in most records, active means well fitted curve in either direction with a large enough effect (not every such curve was filed as active); inconclusive means small, poorly fitted or top-dose-only effect, or another doubt; inactive means flat fitted curve, though single readings scatter.
observed property: activity, negative = inhibition

[[record]]
record_smiles = "CCOC(=O)CNC(=O)CCCCCC(=O)NCC(=O)OCC"
recorded_measurement = "7.81% (inactive)"

[[record]]
record_smiles = "CCCc1nnc(NC(=O)Nc2ccccc2OC)s1"
recorded_measurement = "-4.19% (inactive)"

[[record]]
record_smiles = "Cc1nn(CC(=O)N2CCOCC2)c(=O)c2ccccc12"
recorded_measurement = "1.28% (inactive)"

[[record]]
record_smiles = "NC(=S)c1ccc[n+]([C@@H]2O[C@@H](COP(=O)([O-])OP(=O)(O)OC[C@@H]3O[C@@H](n4cnc5c(N)ncnc54)[C@@H](OP(=O)(O)O)[C@H]3O)[C@@H](O)[C@H]2O)c1"
recorded_measurement = "1.28% [at 38 µM] (inactive)"

[[record]]
record_smiles = "CCCn1c(SCC(N)=O)nc2c(c1=O)C1(CCCC1)Cc1ccccc1-2"
recorded_measurement = "-8.32% (inactive)"

[[record]]
record_smiles = "CCCCCc1nc2sc3c(c2c(=O)n1N)CCC3"
recorded_measurement = "-13% (inactive)"

[[record]]
record_smiles = "COc1ccc(Nc2oc(-c3cccs3)nc2C#N)cc1"
recorded_measurement = "-1.34% (inactive)"

[[record]]
record_smiles = "COc1ccc(N/C(=N\\c2nc(C)cc(C)n2)NC(=O)C(C)C)cc1OC"
recorded_measurement = "-1.06% (inactive)"

[[record]]
record_smiles = "O=c1[nH]c2cnccc2n1-c1ccccc1"
recorded_measurement = "1.57% (inactive)"

[[record]]
record_smiles = "Cc1cc(C)nc(NC2=NCC(=O)N2c2ccc(Cl)cc2)n1"
recorded_measurement = "5.94% (inactive)"

[[record]]
record_smiles = "CC1(C)CC(=O)C(C=N)=C(O)C1"
recorded_measurement = "2.78% (inactive)"

[[record]]
record_smiles = "O=C(c1cncc(Br)c1)N1CCCc2ccccc21"
recorded_measurement = "-1.14% (inactive)"


* * *

- experiment summary: NFAT Signaling Pathway (AID 444);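 further: carbachol stimulus at about its EC50 of 1 µM final; on the % scale 0 is the no-effect control and ±100 the full control effect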
- test conditions: Jurkat NFAT-bla M1, carbachol, beta-lactamase ratio, 5 h; at 17.2 µM (top of the series) unless noted
Records with an inconclusive call do not appear. The source made the active and inactive calls. The call rests on the fitted dose curve; in most records, active means well fitted curve in either direction with a large enough effect (not every such curve was filed as active); inconclusive means small, poorly fitted or top-dose-only effect, or another doubt; inactive means flat fitted curve, though single readings scatter.
observed property: activity change, negative = inhibition

[[record]]
record_smiles = "CCCC(=O)N(Cc1cc2ccccc2[nH]c1=O)c1ccccc1OC"
recorded_measurement = "22.4% (inactive)"

[[record]]
record_smiles = "O=c1[nH]c(CN2CCCCC2)nc2c1C1(CCCCC1)Cc1ccccc1-2"
recorded_measurement = "4.2% (inactive)"

[[record]]
record_smiles = "CCOC(=O)c1cc(C)n(-c2ccc(OC)c(OC)c2)c1C"
recorded_measurement = "-1.46% (inactive)"

[[record]]
record_smiles = "Cn1c(=O)n(CCc2ccccc2)c(=O)c2c1ncn2Cc1ccccc1"
recorded_measurement = "-7.53% (inactive)"

[[record]]
record_smiles = "CC(C)Cc1nc(N2CCN(C(=O)C(C)C)CC2)c(C#N)c2c1CCC2"
recorded_measurement = "-19.4% (inactive)"

[[record]]
record_smiles = "Fc1ccc(-c2cnc[nH]2)cc1"
recorded_measurement = "-3.45% (inactive)"


* * *

- experiment summary: Stat Signaling Pathway (AID 446);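 further: ME-180 cervical cancer cells given 40 pM IL-6 alongside compound; SIE-controlled beta-lactamase reporter measured as 460/530 nm FRET emission ratio; on the % scale 0 is the no-effect control and ±100 the full control effect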
- test conditions: ME-180 (cervical carcinoma) SIE beta-lactamase reporter, IL-6 stimulated, 5 h; at 17.2 µM (top of the series) unless noted
- Procedure: NCGC Assay Overview: The IL-6/STAT signaling pathway was assayed in ME-180 cervical carcinoma cells by a beta-lactamase reporter gene controlled by a STAT Inducible Element (SIE). This reporter is induced by IL-6 at 40 pM AC50 and inhibited by the pan JAK inhibitor, 2-(1,1-Dimethylethyl)-9-fluoro-3,6-dihydro-7H-benz[h]-imidaz[4,5-f]isoquinolin-7-one, at approximately 10 nM AC50. Plated cells were incubated overnight and on the following day, stimulated with 40 pM IL-6 for 5 hrs. […]
Results filed as inconclusive are left out. Active and inactive are the calls of the source. The call rests on the fitted dose curve; in most records, active means well fitted curve in either direction with a large enough effect (not every such curve was filed as active); inconclusive means small, poorly fitted or top-dose-only effect, or another doubt; inactive means flat fitted curve, though single readings scatter.
observed property: activity, negative = inhibition

[[record]]
compound = "CCSc1nc2sc3c(c2c2nnc(SCC(=O)NCc4ccco4)n12)CCCC3"
observed_property = "activity, negative = inhibition"
recorded_measurement = "-18.7% (inactive)"

[[record]]
compound = "Cn1c2ccccc2c2nn(-c3ccccc3)c(=O)cc21"
observed_property = "activity, negative = inhibition"
recorded_measurement = "6.09% (inactive)"

[[record]]
compound = "Cc1[nH]nc(-c2ccc(O)cc2O)c1Oc1ccccc1"
observed_property = "activity, negative = inhibition"
recorded_measurement = "-21.9% (inactive)"

[[record]]
compound = "Cc1cccc(C)c1N1C(=O)C2ON(c3ccccc3)C(c3ccncc3)C2C1=O (centres undefined)"
observed_property = "activity, negative = inhibition"
recorded_measurement = "-5.83% (inactive)"

[[record]]
compound = "CC(C)OC(=O)c1c2nc3ccccc3nc2n2c1[nH]c(=O)c1ccccc12"
observed_property = "activity, negative = inhibition"
recorded_measurement = "-17% (inactive)"

[[record]]
compound = "COc1ccc(-n2ncc3c(NCCCn4ccnc4)ncnc32)cc1"
observed_property = "activity, negative = inhibition"
recorded_measurement = "-5.95% (inactive)"

[[record]]
compound = "N#Cc1c(N)n(CCOC(=O)c2cccc(Br)c2)c2nc3ccccc3nc12"
observed_property = "activity, negative = inhibition"
recorded_measurement = "16.2% (inactive)"

[[record]]
compound = "COc1ccc(N2C(=O)CN=C2Nc2nc(C)cc(C)n2)cc1"
observed_property = "activity, negative = inhibition"
recorded_measurement = "4.62% (inactive)"

[[record]]
compound = "CCOc1nc(SC(C(C)=O)C(=O)Nc2ccccc2)nc(N(C)C)n1 (centres undefined)"
observed_property = "activity, negative = inhibition"
recorded_measurement = "72.5% (inactive)"

[[record]]
compound = "CCOC(=O)c1cc(C)n(Cc2cccc(OC)c2OC)c1C"
observed_property = "activity, negative = inhibition"
recorded_measurement = "-14.9% (inactive)"

[[record]]
compound = "CCOC(=O)c1[nH]c2ccc(OC)cc2c1C"
observed_property = "activity, negative = inhibition"
recorded_measurement = "6% (inactive)"

[[record]]
compound = "CCOC(=O)c1n[nH]c2ccccc12"
observed_property = "activity, negative = inhibition"
recorded_measurement = "-6.98% (inactive)"

[[record]]
compound = "c1ccc(-c2nc(NCC3CCCO3)c3ccccc3n2)nc1 (centres undefined)"
observed_property = "activity, negative = inhibition"
recorded_measurement = "-6.67% (inactive)"

[[record]]
compound = "CCC(NC(=O)Nc1nccs1)(C(F)(F)F)C(F)(F)F"
observed_property = "activity, negative = inhibition"
recorded_measurement = "-6.36% (inactive)"

[[record]]
compound = "CCC(C(=O)Nc1nccs1)(C(F)(F)F)C(F)(F)F"
observed_property = "activity, negative = inhibition"
recorded_measurement = "-9.76% (inactive)"

[[record]]
compound = "O=C(CCN1CCc2ccccc2CC1)c1ccc2c(c1)OCCO2"
observed_property = "activity, negative = inhibition"
recorded_measurement = "12.8% (inactive)"

[[record]]
compound = "O=C(O)c1cc(Cl)cc(Cc2cc(Cl)cc(C(=O)O)c2O)c1O"
observed_property = "activity, negative = inhibition"
recorded_measurement = "-2.39% [at 7.69 µM] (inactive)"

[[record]]
compound = "COc1ccccc1N(O)C1CC(=O)N(c2ccc(Br)cc2)C1=O (centres undefined)"
observed_property = "activity, negative = inhibition"
recorded_measurement = "-0.749% (inactive)"

[[record]]
compound = "CN(C)CCCN1C(=O)C(O)=C(C(=O)c2cc3ccccc3o2)C1c1ccccc1 (centres undefined)"
observed_property = "activity, negative = inhibition"
recorded_measurement = "1.48% (inactive)"

[[record]]
compound = "CCO/C(C)=N/n1c2nc3ccccc3nc2c2c(=O)n(CC(C)C)c(C)nc21"
observed_property = "activity, negative = inhibition"
recorded_measurement = "-8.62% (inactive)"

[[record]]
compound = "Cc1cc2c(C)nc(Cc3ccccc3)nc2o1"
observed_property = "activity, negative = inhibition"
recorded_measurement = "5.35% (inactive)"

[[record]]
compound = "Cc1ccc(C(=O)NCC(C)(C)O)cc1"
observed_property = "activity, negative = inhibition"
recorded_measurement = "12.1% (inactive)"

[[record]]
compound = "CCOc1ccc(C2C(C(=O)c3ccc(C)o3)=C(O)C(=O)N2CCCN(CC)CC)cc1 (centres undefined)"
observed_property = "activity, negative = inhibition"
recorded_measurement = "6.24% (inactive)"

[[record]]
compound = "CCC(C(=O)Nc1ncn[nH]1)(C(F)(F)F)C(F)(F)F"
observed_property = "activity, negative = inhibition"
recorded_measurement = "13% (inactive)"


* * *

- target system: Cytochrome P450 2D6 (Homo sapiens) (UniProt P10635)
- Sequence (P10635 whole entry, looked up): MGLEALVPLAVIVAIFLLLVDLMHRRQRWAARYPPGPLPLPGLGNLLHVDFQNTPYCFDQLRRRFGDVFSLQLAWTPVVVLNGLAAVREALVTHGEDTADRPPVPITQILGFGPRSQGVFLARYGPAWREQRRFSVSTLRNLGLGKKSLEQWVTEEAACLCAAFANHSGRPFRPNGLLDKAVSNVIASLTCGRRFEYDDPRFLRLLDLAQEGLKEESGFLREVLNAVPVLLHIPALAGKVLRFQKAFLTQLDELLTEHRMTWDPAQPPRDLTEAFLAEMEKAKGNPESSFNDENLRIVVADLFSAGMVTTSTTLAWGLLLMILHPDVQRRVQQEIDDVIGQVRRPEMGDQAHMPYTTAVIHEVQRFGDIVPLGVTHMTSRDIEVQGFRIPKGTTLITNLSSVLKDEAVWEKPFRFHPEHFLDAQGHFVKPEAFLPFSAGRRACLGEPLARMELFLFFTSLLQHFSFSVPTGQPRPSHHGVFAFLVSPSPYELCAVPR
- experiment summary: qHTS Assay for Inhibitors and Substrates of Cytochrome P450 2D6 (AID 891); further: nearly all actives have a fitted effect of over 60% in size
- test conditions: recombinant CYP2D6, luciferin-ME EGE luminescence; series mostly up to 57.1 µM
Inconclusive results are not listed. Calls of active or inactive are those of the source. The call rests on the fitted dose curve; in most records, active means well fitted inhibition curve with a large enough effect; inconclusive means small, poorly fitted or top-dose-only effect; inactive means no such curve, though single readings can be large or run the other way. Where a SMILES comes first, the peptide text is derived from it.
Outcomes: label 1 (active), label 0 (inactive)

[[record]]
compound = "C=C1CC[C@@H](O)C/C1=C/C=C1\\CCC[C@]2(C)[C@@H]1CC[C@H]2[C@@H](C)/C=C\\[C@@H](C)C(C)C"
group = "label 0"

[[record]]
compound = "O=C(/C=C\\c1ccc(O)c(O)c1)O[C@H]1C[C@@](O)(C(=O)O)C[C@H](O)[C@@H]1O"
group = "label 0"

[[record]]
compound = "Nc1ccccc1C(=O)C[C@@H](N)C(=O)O"
group = "label 0"

[[record]]
compound = "CC1(C)[C@@H](O)CC[C@@]2(C)[C@H]1CC[C@]1(C)[C@H]2C(=O)C=C2[C@@H]3C[C@@](C)(C(=O)O)CC[C@]3(C)CC[C@@]21C"
group = "label 0"

[[record]]
compound = "COc1ccc2c(c1)[C@]1(C)CCC[C@](C)(CO)[C@@H]1CC2"
group = "label 0"

[[record]]
compound = "COc1ccccc1-c1oc2ccccc2c(=O)c1OC"
group = "label 0"

[[record]]
compound = "NCCC[C@@H](CC(=O)N[C@@H]1CCCC[C@H]1C(=O)N[C@H](CC(=O)N[C@@H](CCC(=O)O)CC(=O)O)Cc1c[nH]c2ccccc12)NC(=O)C[C@H](Cc1c[nH]c2ccccc12)NC(=O)[C@@H]1CNCC[C@H]1N"
group = "label 0"

[[record]]
compound = "NCCC[C@@H](CC(=O)N[C@@H]1CCCC[C@H]1C(=O)N[C@H](CC(=O)N[C@@H](CCC(=O)O)CC(=O)O)Cc1ccccc1)NC(=O)C[C@H](Cc1c[nH]c2ccccc12)NC(=O)[C@@H]1CNCC[C@H]1N"
group = "label 0"

[[record]]
compound = "CC(C)[C@@H](CC(=O)N[C@@H]1CCCC[C@H]1C(=O)N[C@H](CC(=O)N[C@@H](CCC(=O)O)CC(=O)O)Cc1ccccc1)NC(=O)C[C@H](Cc1ccccc1)NC(=O)[C@@H]1CCCC[C@H]1N"
group = "label 0"

[[record]]
compound = "CC(C)C[C@@H](CC(=O)N[C@H](CC(=O)N[C@@H]1CCNC[C@H]1C(=O)N[C@H](CC(=O)N[C@@H](CCC(=O)O)CC(=O)O)CC(C)C)C(C)C)NC(=O)[C@@H]1CNCC[C@H]1N"
group = "label 0"

[[record]]
compound = "NCCC[C@@H](CC(=O)N[C@@H]1CCCC[C@H]1C(=O)N[C@H](CC(=O)N[C@@H](CCC(=O)O)CC(=O)O)Cc1ccccc1)NC(=O)C[C@H](Cc1ccccc1)NC(=O)[C@@H]1CNCC[C@H]1N"
group = "label 0"

[[record]]
compound = "N[C@@H](Cc1c[nH]c2ccccc12)C(=O)NCC(=O)O (H-Trp-Gly-OH)"
group = "label 0"

[[record]]
compound = "CC(C)C[C@@H](CC(=O)N[C@H](CC(=O)N[C@@H]1CCCC[C@H]1C(=O)N[C@H](CC(=O)N[C@@H](CCC(=O)O)CC(=O)O)CC(C)C)C(C)C)NC(=O)[C@@H]1CCCC[C@H]1N"
group = "label 0"

[[record]]
compound = "CC(C)C[C@@H](CC(=O)N[C@@H](CCC(=O)O)CC(=O)O)NC(=O)[C@@H]1CNCC[C@H]1NC(=O)C[C@H](CCCN)NC(=O)C[C@H](CO)NC(=O)[C@@H]1CNCC[C@H]1N"
group = "label 0"

[[record]]
compound = "CC(C)C[C@@H](CC(=O)N[C@H](CC(=O)N[C@@H]1CCCC[C@H]1C(=O)N[C@H](CC(=O)N[C@@H](CCC(=O)O)CC(=O)O)Cc1ccccc1)C(C)C)NC(=O)[C@@H]1CCCC[C@H]1N"
group = "label 0"

[[record]]
compound = "CC(C)[C@@H](CC(=O)N[C@@H]1CCCC[C@H]1C(=O)N[C@H](CC(=O)N[C@@H](CCC(=O)O)CC(=O)O)Cc1c[nH]c2ccccc12)NC(=O)C[C@H](Cc1c[nH]c2ccccc12)NC(=O)[C@@H]1CCCC[C@H]1N"
group = "label 0"

[[record]]
compound = "COc1ccc(-c2cc(=O)c3ccc(O)cc3o2)cc1"
group = "label 0"

[[record]]
compound = "O=c1cc(-c2ccccc2O)oc2c1ccc1ccccc12"
group = "label 0"

[[record]]
compound = "O=c1cc(-c2ccccc2)oc2cc(O[C@H]3O[C@H](CO)[C@@H](O)[C@H](O)[C@@H]3O)c(O)c(O)c12"
group = "label 0"

[[record]]
compound = "COc1cc(/C=C\\C(=O)N2CCCCC2=O)cc(OC)c1OC"
group = "label 0"

[[record]]
compound = "CC(C)[C@@H](CC(=O)N[C@@H]1CCNC[C@H]1C(=O)N[C@H](CC(=O)N[C@@H](CCC(=O)O)CC(=O)O)Cc1c[nH]c2ccccc12)NC(=O)C[C@H](CO)NC(=O)[C@@H]1CNCC[C@H]1N"
group = "label 0"

[[record]]
compound = "CC(C)C[C@@H](CC(=O)N[C@@H](CCC(=O)O)CC(=O)O)NC(=O)[C@@H]1CCCC[C@H]1NC(=O)C[C@H](CCCN)NC(=O)C[C@H](CO)NC(=O)[C@@H]1CCCC[C@H]1N"
group = "label 0"

[[record]]
compound = "CC[C@@H]1OC(=O)[C@@H](C)[C@H](O[C@@H]2C[C@@](C)(OC)[C@@H](O)[C@H](C)O2)[C@H](C)[C@H](O[C@@H]2O[C@@H](C)C[C@@H](N(C)C)[C@H]2O)[C@@](C)(O)C[C@H](C)C(=O)[C@@H](C)[C@H](O)[C@@]1(C)O"
group = "label 0"

[[record]]
compound = "NCCC[C@@H](CC(=O)N[C@@H]1CCNC[C@H]1C(=O)N[C@H](CC(=O)N[C@@H](CCC(=O)O)CC(=O)O)Cc1ccccc1)NC(=O)C[C@H](Cc1c[nH]c2ccccc12)NC(=O)[C@@H]1CCCC[C@H]1N"
group = "label 0"

[[record]]
compound = "Clc1ccc(CO[C@@H](Cn2ccnc2)c2ccc(Cl)cc2Cl)cc1"
group = "label 1"

